# Tested on: NCI-H1876 complex spheroid growth, % test/control
# protocol: Anticancer human tumor NCI-H1876 cell line growth inhibition [Asc];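 further: compound exposure lasted 7 days starting three days after seeding; 100% = DMSO vehicle control wells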
# testConditions: second compound 0.0316 µM; first compound 0.0316 µM; stronger effect = lower value
Please go through the items and note down their viability, T/C.
A number alone suffices; assume %.

Q: What is its viability, T/C for NCI-H1876 complex spheroid growth, % test/control? Entry: C=CC(=O)N1CCN(c2nc(=O)n(-c3c(C)ccnc3C(C)C)c3nc(-c4c(O)cccc4F)c(F)cc23)C(C)C1 (configuration not stated) + Cc1c(S(C)(=O)=O)c(-c2cc(F)cc(N3CCN(c4ccc(NS(=O)(=O)c5ccc(NC(CCN6CCC(C(=O)OCCCP(=O)(O)O)CC6)CSc6ccccc6)c(S(=O)(=O)C(F)(F)F)c5)cc4)CC3)c2)c(-c2ccc(Cl)cc2)n1C(C)C
Ans: 91

Q: Now consider O=C(c1cc(Cc2n[nH]c(=O)c3ccccc23)ccc1F)N1CCN(C(=O)C2CC2)CC1 + Cc1c(S(C)(=O)=O)c(-c2cc(F)cc(N3CCN(c4ccc(NS(=O)(=O)c5ccc(NC(CCN6CCC(C(=O)OCCCP(=O)(O)O)CC6)CSc6ccccc6)c(S(=O)(=O)C(F)(F)F)c5)cc4)CC3)c2)c(-c2ccc(Cl)cc2)n1C(C)C .
Ans: 99.6

Q: Now consider CCN1CCN(Cc2ccc(Nc3ncc(F)c(-c4cc(F)c5nc(C)n(C(C)C)c5c4)n3)nc2)CC1 + CNC(C)C(=O)NC1CN(S(=O)(=O)c2cccc(S(=O)(=O)N3CCC4CCC(C(=O)NC(c5ccccc5)c5ccccc5)N4C(=O)C(NC(=O)C(C)NC)C3)c2)CCC2CCC(C(=O)NC(c3ccccc3)c3ccccc3)N2C1=O .
Ans: 102

Q: Now consider O=C(c1ccc(F)c(F)c1Nc1ccc(I)cc1F)N1CC(O)([C@@H]2CCCCN2)C1 + Cc1c(S(C)(=O)=O)c(-c2cc(F)cc(N3CCN(c4ccc(NS(=O)(=O)c5ccc(NC(CCN6CCC(C(=O)OCCCP(=O)(O)O)CC6)CSc6ccccc6)c(S(=O)(=O)C(F)(F)F)c5)cc4)CC3)c2)c(-c2ccc(Cl)cc2)n1C(C)C .
Ans: 108

Q: Now consider COc1c(OCCCN2CCOCC2)ccc2c3n(c(=NC(=O)c4cnc(N)nc4)nc12)CCN3 + CNC(C)C(=O)NC1CN(S(=O)(=O)c2cccc(S(=O)(=O)N3CCC4CCC(C(=O)NC(c5ccccc5)c5ccccc5)N4C(=O)C(NC(=O)C(C)NC)C3)c2)CCC2CCC(C(=O)NC(c3ccccc3)c3ccccc3)N2C1=O .
Ans: 99.4

Q: Now consider NC1CCC(NC2CC2c2ccccc2)CC1 (configuration not stated) + CNC(C)C(=O)NC1CN(S(=O)(=O)c2cccc(S(=O)(=O)N3CCC4CCC(C(=O)NC(c5ccccc5)c5ccccc5)N4C(=O)C(NC(=O)C(C)NC)C3)c2)CCC2CCC(C(=O)NC(c3ccccc3)c3ccccc3)N2C1=O .
Ans: 127

Q: Now consider O=C(c1cc(Cc2n[nH]c(=O)c3ccccc23)ccc1F)N1CCN(C(=O)C2CC2)CC1 + CNC(C)C(=O)NC1CN(S(=O)(=O)c2cccc(S(=O)(=O)N3CCC4CCC(C(=O)NC(c5ccccc5)c5ccccc5)N4C(=O)C(NC(=O)C(C)NC)C3)c2)CCC2CCC(C(=O)NC(c3ccccc3)c3ccccc3)N2C1=O .
Ans: 98.5

Values compiled from PubChem BioAssay AID1963441.
